Reported values of composite z-score for individual entries
# Experimental target: Epidermal growth factor receptor (Homo sapiens)
# Test summary: EGFR binders on small-molecule microarrays, primary screen, biochemical, small-molecule microarray, 635 nm fluorescence (AID 1104);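 further: score merges 667 nm emission intensity with spot signal to noise over triplicate slides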
# Protocol conditions: EGFR binding, higher = more signal
// keep it numeric: no unit symbol after the value

Field: example entries. Status: answers known.
Request: Tell me the measured composite z-score of C=CC[C@]1(C(=O)NCCCOC)N=C(c2ccc(OCCCO)cc2)O[C@H]1c1ccccc1CN=[N+]=[N-] , please.
Response: 0.0673

Request: Here is the next molecule: COc1ccc([C@H]2OC[C@@H]3C[C@@H](Cc4ccccc4)C(=O)N32)cc1
Response: 0.424

Request: O=C(NCCN1CCOCC1)C1N=C(c2ccc(OCCCO)cc2)N(c2ccccc2)O1 (stereo not drawn) ?
Response: 0.837

Request: Please do the same for CNS(=O)(=O)c1ccc(C)cc1 as well.
Response: 0.434

Request: Please give the result for [N-]=[N+]=Nc1ccccc1[C@@H]1OC(c2ccc(OCCCO)cc2)=N[C@]1(CCS(=O)(=O)c1ccccc1)C(N)=O too.
Response: 0.0129

Request: Then this molecule: CC(CO)N1C(=O)[C@@H]2C3C(=O)OCCC/C=C\[C@H]3OC23C=CCN(C(C)(C)C)C(=O)[C@@H]13 (stereo partly drawn)
Response: -0.325

Request: CCCC[C@@H]1C[C@H]1[C@@H](NC(=O)C(C)(C)C)c1ccc(C(F)(F)F)cc1 ?
Response: -1.76

Proceed to the following item.
Request: Endpoint output: composite z-score of COC(=O)C(CC#Cc1ccc2c(c1)[C@]1(C(=O)N2)[C@H](C(=O)Nc2nc3ccccc3s2)[C@H]2C(=O)O[C@H](c3ccccc3)[C@H](c3ccccc3)N2[C@@H]1c1ccc(O)cc1)C(=O)OC . Value?
Response: 0.642
